Target: T1, human ActRIIB (human, UniProt Q13705 19-137, limits assumed)
T1 construct: antigen in MSD-SET; also called ACVR2B; ActR2B
T1 sequence: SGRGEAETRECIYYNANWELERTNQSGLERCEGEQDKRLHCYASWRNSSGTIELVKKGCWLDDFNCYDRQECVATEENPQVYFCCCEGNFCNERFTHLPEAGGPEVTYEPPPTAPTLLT
Assay: MSD-SET
measurement name: pKd
Hey, just a heads up that pKd is the negative log base 10 of the concentration in molar.

Soidawürstle Fab (Fab, V domains shown, Fab; also called Soidawüsrstel (Fab)) VH: QVQLVQSGAEVRKPGSSVKVSCKASGYTFTSSYINWVRQAPGQGLEWMGTINPVSGSTSYAQKFQGRVTITADTSTSTAYMELSSLRSEDTAVYYCARGGWFDYWGQGTLVTVSS VL: QSALTQPRSVSGSPGQSVTISCTGTSSDVGSYNRVNWYQQHPGKAPKLMIYGVSKRESGVPDRFSGSKSGNTASLTISGLQAEDEADYYCGTFAGGRYYGVFGGGTKLTVL : 11.59
Antibody Ofaschlupfer (antibody, V domains shown, full-length IgG) VH: QVQLVQSGAEVKKPGSSVKVSCKASGYTFTSSYINWVRQAPGQGLEWMGTINAVSGSTSYAQKFQGRVTITADTSTSTAYMELSSLRSEDTAVYYCARGGWFDYWGQGTLVTVSS VL: QSALTQPRSVSGSPGQSVTISCTGTSSDVGSKNYVNWYQQHPGKAPKLMIYGVSKRESGVPDRFSGSKSGNTASLTISGLQAEDEADYYCGTFAGGKYYGVFGGGTKLTVL : 11.54

From here, focus on the item given below.
Q. What measured pKd goes with Antibody Schwardamaga (antibody, V domains shown, full-length IgG) VH: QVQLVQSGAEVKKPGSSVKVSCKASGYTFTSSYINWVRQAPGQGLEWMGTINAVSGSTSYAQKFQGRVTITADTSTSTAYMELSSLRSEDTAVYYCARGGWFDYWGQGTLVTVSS VL: QSALTQPRSVSGSPGQSVTISCTGTSSDVGSANYVNWYQQHPGKAPKPMIYGVSRRPSGVPDRFSGSKSGNTASLTISGLQAEDEADYYCGTFAGGKYYGVFGGGTKLTVL ?
A. 10.89

The measurements presented in this section are drawn from patent US20250243286A1.
